The origin of these recorded values is PubChem BioAssay AID212.

- System: BDF1 mice, colon carcinoma 38 sc, T/C %
- Protocol Details: NCI In Vivo Anticancer Drug Screen. Data for tumor model Colon Carcinoma 38 (subcutaneous) in B6D2F1 (BDF1) mice
- Details: endpoint: median tumor weight (est.); dose: 50.0 mg/kg/injection; schedule: Q07DX002 (ip); vehicle: Klucel (hydroxypropylcellulose) (HPC); higher = larger tumour
Results filed as inconclusive are left out.
Recorded Endpoint: T/C

Answered cases to consult:
Compound | T/C
Nc1ccccc1N | 91 % of control
CN(C)c1ccc2c(SCC(=O)OCC(=O)[C@@]3(O)CC[C@H]4[C@@H]5CCC6=CC(=O)C=C[C@]6(C)[C@H]5C(=O)C[C@@]43C)c3ccc(N(C)C)cc3nc2c1 | 82 % of control
CCN(CC)CCOCc1cccc2c(=O)cc(-c3ccccc3)oc12 | 66 % of control
O=C(O)Cc1cccc2c(=O)c(-c3ccccc3)c(-c3ccccc3)oc12 | 92 % of control

Problem: Retrieve T/C measured for "C=CCNc1ccc(C)cc1" and print it.
Result: 66 % of control

Problem: Please list T/C recorded for the compound "C[C@]12CCC(=O)C=C1CC[C@@H]1[C@@H]2C(=O)C[C@@]2(C)[C@H]1CC[C@]2(O)C(=O)CO"
Result: 117 % of control

Problem: Check the records and state T/C for OC(CBr)C(O)C(O)C(O)CBr (stereo unspecified)
Result: 103 % of control

Problem: Let me know recorded T/C for "CC(C)CCC[C@@H](C)[C@H]1CC[C@H]2[C@@H]3CC=C4C[C@@H](OC(=O)Cc5ccc(N(CCCl)CCCl)cc5)CC[C@]4(C)[C@H]3CC[C@]12C" , thanks.
Result: 111 % of control

Problem: Dear colleague, please send me the reported T/C for "C(C#CCN1CCOCC1)#CCN1CCOCC1" when you can.
Result: 60 % of control

Problem: Provide T/C value for the following compound: "O=C1N[C@H]2[C@H](CS[C@H]2CCCCC(=O)N(CCP(c2ccccc2)c2ccccc2)CCP(c2ccccc2)c2ccccc2)N1"
Result: 71 % of control

Problem: Give T/C for the following compound: "Cn1c(N)c(C(=O)/C=C/c2ccccc2)c(=O)n(C)c1=O"
Result: 112 % of control

Problem: Give recorded T/C. OC1CCCC2CCC[N-]C12.OC1CCCC2CCC[N-]C12.[Mn+2] (stereo unspecified)
Result: 91 % of control

Problem: Please indicate T/C recorded for "CCN(CC)CCOC(=O)Cc1cccc2c(=O)cc(-c3ccccc3)oc12"
Result: 61 % of control

Problem: Look up T/C of O=C1C2(Cl)C3(Cl)C4(Cl)C(Cl)(Cl)C5(Cl)[C@]3(Cl)C1(Cl)[C@]5(Cl)C24Cl (stereo partly specified) and report it.
Result: 75 % of control

Problem: Supply reported T/C belonging to this compound: "O=C(O)Cc1cccc2c(=O)cc(-c3ccccc3)oc12"
Result: 79 % of control

Problem: Write down T/C measured for item O=c1[nH]c(=O)n(C2CC(O)C(CO)O2)cc1Br (stereo unspecified)
Result: 112 % of control

Problem: // Input: "O=c1ccc2ccccc2o1" . Output its T/C only.
Result: 115 % of control

---

Listing of recorded T/C by entry.
- Test system: BDF1 mice, colon carcinoma 38 sc, T/C %
- Protocol Details: NCI In Vivo Anticancer Drug Screen. Data for tumor model Colon Carcinoma 38 (subcutaneous) in B6D2F1 (BDF1) mice
- Details: endpoint: median tumor weight (est.); dose: 50.0 mg/kg/injection; schedule: Q07DX003 (ip); vehicle: saline; higher = larger tumour
Inconclusive results are not listed.

Previously resolved entries follow.
Compound | T/C
Cc1c2ccncc2c(C)c2c1[nH]c1ccccc12 | 67 % of control
Nc1nncs1 | 74 % of control
C1OC1CN1CCN(CC2CO2)CC1 (stereo not drawn) | 4 % of control
O=C(O)CC(NC(=O)CP(=O)(O)O)C(=O)O (stereo not drawn) | 95 % of control
[N-]=[N+]=CC(=O)CCC(N)C(=O)O (stereo not drawn) | 10 % of control

Problem: Input C1OC1CO[C@@H]1CO[C@H]2[C@@H]1OC[C@H]2OCC1CO1 (stereo partly drawn) , output reported T/C.
Result: 83 % of control

Problem: Give the reported value of T/C for this record: COc1cc2cc3c4cc(OC)c(OC)cc4cc[n+]3c(C)c2cc1OC (tested in a mixture with another compound)
Result: 164 % of control

Problem: Look up and report measured T/C for this entry: CN1c2c(nc(N)[nH]c2=O)NCC1CCNc1ccc(C(=O)NC(CCC(=O)O)C(=O)O)cc1 (stereo not drawn)
Result: 155 % of control
